- Test system: Plasma
- experimental_protocol: Haemostatic activity in human plasma assessed as change in rate of prothrombin time at 5 uM after 3 mins by thromboplastic agent based assay relative to control
- Type: functional
measure: Activity (%)
Response body: numeric value in %, unit text excluded.

Consider the following illustrative entries.
given_smiles=O=C(/C=C/c1ccccc1)Nc1nccs1 study_system=Plasma measure=Activity reading_unit=% recorded_measurement=-7.09
given_smiles=CC(=O)Oc1cccc(/C=C/C(=O)Nc2nccs2)c1 study_system=Plasma measure=Activity reading_unit=% recorded_measurement=-1.05
given_smiles=COc1ccc(/C=C/C(=O)Nc2nccs2)cc1OC study_system=Plasma measure=Activity reading_unit=% recorded_measurement=0.28

# input for lookup
input: Look up Activity for this molecule: Nc1nccs1
output: -4.91

---

- Test system: Plasma
- experimental_protocol: Haemostatic activity in human plasma assessed as change in rate of activated partial thromboplastin time at 50 uM after 3 mins relative to control
- Type: functional
The compounds listed here are annotated with their Activity.
Response body: numeric value in %, unit text excluded.

Consider the following illustrative entries.
given_smiles=O=C(/C=C/c1ccccc1)Nc1nccs1 study_system=Plasma recorded_measurement=-6.72
given_smiles=Nc1nccs1 study_system=Plasma recorded_measurement=0
given_smiles=COc1ccc(/C=C/C(=O)Nc2nccs2)cc1OC study_system=Plasma recorded_measurement=-0.56
given_smiles=O=C(CCc1ccccc1)Nc1nccs1 study_system=Plasma recorded_measurement=-1.56
given_smiles=COc1cc(/C=C/C(=O)Nc2nccs2)ccc1OC(C)=O study_system=Plasma recorded_measurement=-6.28
given_smiles=COc1ccc(/C=C/C(=O)Nc2nccs2)cc1 study_system=Plasma recorded_measurement=0.28

input: Look up Activity for this compound: CC(=O)Oc1ccc(/C=C/C(=O)Nc2nccs2)cc1OC(C)=O
output: -2.04

input: Look up Activity for this compound: COc1cc(/C=C/C(=O)Nc2nccs2)cc(OC)c1OC
output: 1.96

input: Look up Activity for this compound: CC(=O)Oc1cccc(/C=C/C(=O)Nc2nccs2)c1
output: -9.06

input: Look up Activity for this compound: CC(=O)Oc1ccc(/C=C/C(=O)Nc2nccs2)cc1
output: -2.71

input: Look up Activity for this compound: CC(=O)Oc1ccccc1/C=C/C(=O)Nc1nccs1
output: -8.15

---

The compounds listed here are annotated with their Activity.
- Tested on: Plasma
- experimental_protocol: Haemostatic activity in human plasma assessed as change in rate of activated partial thromboplastin time at 100 uM after 3 mins relative to control
- Assay type: functional
Response body: numeric value in %, unit text excluded.

compound=CC(=O)Oc1cccc(/C=C/C(=O)Nc2nccs2)c1 measure=Activity recorded_measurement=-8.61
compound=CC(=O)Oc1ccc(/C=C/C(=O)Nc2nccs2)cc1OC(C)=O measure=Activity recorded_measurement=0

# input for lookup
input: Look up Activity for this compound: O=C(/C=C/c1ccccc1)Nc1nccs1
output: -2.71

---

- System: Plasma
- experimental_protocol: Haemostatic activity in human plasma assessed as change in rate of thrombin time at 10 uM after 3 mins by thrombin agent based assay relative to control
- Assay type: functional
measure: Activity (%)
Response body: numeric value in %, unit text excluded.

Consider the following illustrative entries.
compound=COc1cc(/C=C/C(=O)Nc2nccs2)ccc1OC(C)=O study_system=Plasma recorded_measurement=-13.06
compound=COc1ccc(/C=C/C(=O)Nc2nccs2)cc1OC study_system=Plasma recorded_measurement=-22.41

input: Look up Activity for this compound: CC(=O)Oc1ccc(/C=C/C(=O)Nc2nccs2)cc1OC(C)=O
output: -28.13

input: Look up Activity for this compound: O=C(CCc1ccccc1)Nc1nccs1
output: -5.33

input: Look up Activity for this compound: COc1cc(/C=C/C(=O)Nc2nccs2)cc(OC)c1OC
output: -10.14

input: Look up Activity for this compound: CC(=O)Oc1cccc(/C=C/C(=O)Nc2nccs2)c1
output: -15.39

input: Look up Activity for this compound: Nc1nccs1 [AMINOTHIAZOLE]
output: -6.47

input: Look up Activity for this compound: CC(=O)Oc1ccccc1/C=C/C(=O)Nc1nccs1
output: -21.39
